Experimental System: T1, SsoSSB WT (Saccharolobus solfataricus DSM 1617 …, UniProt Q97W73 1-148)
T1 sequence: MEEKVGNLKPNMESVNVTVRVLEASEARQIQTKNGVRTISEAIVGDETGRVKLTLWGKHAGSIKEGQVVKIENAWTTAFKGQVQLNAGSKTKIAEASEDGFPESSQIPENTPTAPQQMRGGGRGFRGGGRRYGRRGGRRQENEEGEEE
Assay Text: native MS
Measured Parameter: Kd (nM)
Kindly provide the numeric value in nM only, without the unit symbol.

Item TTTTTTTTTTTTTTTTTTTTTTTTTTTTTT (ssDNA) [T30] has what recorded Kd?
197

Item TTTTTTTTTTTTTTT (ssDNA) [T15] has what recorded Kd?
1940
